assay: acute toxicity in rats; settings: in vivo, po; rat, both sexes, oesophageal tube, death within 14 days
experimental-readout: LD50 at 336 h (mg/kg)
Give a bare numeral; the unit mg/kg is implied.

[ask] Find the recorded LD50 at 336 h belonging to Cc1cc2c(n(C)c1=O)CCCC2=O [Substance F] and report it.
[reply] 396

[ask] Please do the same for Cc1cc(=O)[nH]c2c1C(=O)CCC2 [Substance D] as well.
[reply] 1370

[ask] Same thing, different compound: Cn1c2c(ccc1=O)C(=O)CCC2 [Substance A]
[reply] 489

[ask] Can you check CN1C(=O)CCC2=C1CCCC2=O [Substance C] next?
[reply] 748

[ask] Continue with CC1CC2=C(CCCC2=O)NC1=O (centres unmarked) [Substance B]
[reply] 659
